# Assayed system: BaF3 TELJAK3 cells (Homo sapiens, UniProt P52333)
# Construct: fused on or other part: TEL (ETV6) N-terminal part, coding nucleotides 1-487, serves as the oligomerising partner; It is fused through a Sal I site to the JAK3 kinase domain and expressed from pTRE2 in BaF3 cells bearing pTET-off; P41212 (Transcription factor ETV6)
# Sequence (P52333 1-1124): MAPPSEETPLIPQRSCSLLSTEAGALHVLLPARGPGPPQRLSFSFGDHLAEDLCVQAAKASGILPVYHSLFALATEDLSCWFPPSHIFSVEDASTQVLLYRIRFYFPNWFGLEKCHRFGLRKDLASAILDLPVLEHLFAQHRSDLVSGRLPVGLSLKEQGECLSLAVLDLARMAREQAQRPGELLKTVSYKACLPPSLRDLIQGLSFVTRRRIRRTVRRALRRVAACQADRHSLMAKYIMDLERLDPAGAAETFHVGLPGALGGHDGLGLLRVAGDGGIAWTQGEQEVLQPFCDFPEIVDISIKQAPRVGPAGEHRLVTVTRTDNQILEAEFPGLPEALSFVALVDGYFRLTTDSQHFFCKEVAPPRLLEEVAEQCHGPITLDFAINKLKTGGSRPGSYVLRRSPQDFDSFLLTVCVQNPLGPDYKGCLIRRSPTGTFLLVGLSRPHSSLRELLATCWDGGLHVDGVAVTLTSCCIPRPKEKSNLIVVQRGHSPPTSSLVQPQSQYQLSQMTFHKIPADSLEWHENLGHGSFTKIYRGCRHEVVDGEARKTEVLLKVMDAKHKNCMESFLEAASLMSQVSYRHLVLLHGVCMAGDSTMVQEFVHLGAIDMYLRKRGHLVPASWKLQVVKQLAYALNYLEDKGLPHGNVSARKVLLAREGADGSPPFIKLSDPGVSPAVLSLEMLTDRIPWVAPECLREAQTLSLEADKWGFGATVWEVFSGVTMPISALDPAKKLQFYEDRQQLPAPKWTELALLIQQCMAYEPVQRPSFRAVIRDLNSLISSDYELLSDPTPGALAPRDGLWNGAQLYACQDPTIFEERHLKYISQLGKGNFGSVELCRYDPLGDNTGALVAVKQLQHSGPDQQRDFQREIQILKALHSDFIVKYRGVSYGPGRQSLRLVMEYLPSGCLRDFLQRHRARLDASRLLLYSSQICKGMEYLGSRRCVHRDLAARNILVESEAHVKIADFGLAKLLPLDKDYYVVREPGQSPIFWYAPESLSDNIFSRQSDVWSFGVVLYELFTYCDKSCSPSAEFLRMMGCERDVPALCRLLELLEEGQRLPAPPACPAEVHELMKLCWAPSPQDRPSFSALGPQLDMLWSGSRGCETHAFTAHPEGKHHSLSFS
# Method notes: Cellular screening, BaF3 TEL:JAK3 cells, Alamar Blue
# Type: cell-based
# Test parameters: 40 hr, read-out: BafT_J3 IC50_nM
Quantity measured: GI50

> print(dat)
                                   compound  measured.value
1  C=CC(=O)Nc1ccc(Sc2ccnc(Nc3cccc(N4CCCC4)c3)n2)cc1 [Compound 355]          < 5 µM
2  CON(C)C(=O)c1ccc(Sc2nc(Nc3ccc(N4CCOCC4)cc3)ncc2C)cc1 [Compound 218]         < 20 µM
3  C=CC(=O)Nc1ccc(Sc2nc(Nc3ccc(N4CCOCC4)cc3)ncc2C)c(C)c1 [Compound 163]          < 1 µM
4  Cc1cnc(Nc2ccc(N3CCOCC3)cc2)nc1Sc1c(C)cc(N)cc1C [Compound 165]         > 20 µM
5  N#Cc1ncn(Cc2ccc(Sc3ccnc(Nc4ccc(N5CCOCC5)cc4)n3)cc2)c1C#N [Compound 201]          < 5 µM
6  Nc1ccc(Sc2ccnc(Nc3ccc(N4CCOCC4)cc3)n2)cc1 [Compound 27]         < 20 µM
7  Cc1cc(Sc2nc(Nc3ccc(N4CCOCC4)cc3)ncc2C)ccc1N [Compound 255]         < 20 µM
8  N#Cc1c(N)ncn1Cc1cccc(Sc2ccnc(Nc3ccc(N4CCOCC4)cc3)n2)c1 [Compound 199]         < 20 µM

So what's the measured GI50 for this one? C=CC(=O)Nc1cccc(Nc2nccc(Sc3ccc(OC)cc3)n2)c1 [Compound 42]
< 5 µM

So what's the measured GI50 for this one? C=CC(=O)Nc1cccc(Sc2ccnc(Nc3ccc(OC)cc3)n2)c1 [Compound 120]
< 1 µM

So what's the measured GI50 for this one? C=CC(=O)Nc1ccc(Sc2ccnc(Nc3ccc(S(N)(=O)=O)c(OC)c3)n2)cc1 [Compound 374]
< 1 µM
